test system: PAF induced elastase release in human neutrophils; test: PAF induced exocytosis (elastase assay); format: cell-based; conditions: human leucocytes, 37° C., 10 min; mean of 2-4 experiments in duplicate; read-out: IC50, inhibition of PAF induced elastase release
Measure name: IC50 (µM)
Answer in µM, number only, no unit symbol.

Problem: // IC50 lookup, key: CC1C(=O)OC2C(O)C34C5CC(C(C)(C)C)C36C(OC(=O)C6O)OC4(C(=O)O5)C12O (stereo not shown)
Result: 80
